Target: Vhr1 (UniProt P40522)
Sequence: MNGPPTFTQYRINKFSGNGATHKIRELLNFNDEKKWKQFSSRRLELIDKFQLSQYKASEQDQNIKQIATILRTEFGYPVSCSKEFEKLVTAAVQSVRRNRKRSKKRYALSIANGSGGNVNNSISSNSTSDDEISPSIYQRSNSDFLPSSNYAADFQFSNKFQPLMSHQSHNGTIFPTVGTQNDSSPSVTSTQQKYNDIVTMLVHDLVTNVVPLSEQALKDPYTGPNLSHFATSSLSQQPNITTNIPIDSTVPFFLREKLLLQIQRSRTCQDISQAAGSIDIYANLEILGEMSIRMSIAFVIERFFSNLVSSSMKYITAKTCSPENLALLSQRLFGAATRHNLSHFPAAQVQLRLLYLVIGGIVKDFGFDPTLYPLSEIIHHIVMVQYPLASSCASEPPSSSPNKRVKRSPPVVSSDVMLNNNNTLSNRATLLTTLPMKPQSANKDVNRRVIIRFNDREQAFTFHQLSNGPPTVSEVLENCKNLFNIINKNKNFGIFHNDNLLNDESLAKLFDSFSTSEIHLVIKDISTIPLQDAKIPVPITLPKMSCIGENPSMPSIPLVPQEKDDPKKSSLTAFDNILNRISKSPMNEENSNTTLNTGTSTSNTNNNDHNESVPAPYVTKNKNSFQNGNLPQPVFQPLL
Experiment: PBM E-score (8-mer binding enrichment) (E-score (-0.5 to 0.5)); higher = stronger / more preferred TF binding
Conditions: protein concentration: 200 nM; construct: GST-full length
In all, about 33,000 sequences were measured (“E-score (-0.5 to 0.5)”: median about -0.012, highest 2% from about 0.27 on). The entries come from a sample that favours the highest values as a whole.
Categories are defined by ranges of PBM E-score, namely bin A (below 0.08), bin B (0.08 to below 0.3), bin C (0.3 or more)

Study these solved cases before continuing.
>>> classification("ACGTTGGA")
"bin A"
>>> classification("AGAATCAT")
"bin C"
>>> classification("AGTGAGTC")
"bin C"
>>> classification("AGTGAGTG")
"bin A"
>>> classification("CCAATCAG")
"bin A"
>>> classification("AGGGGCGG")
"bin C"

Q. State the class of the sequence shown: `CGTGAGTA`
A. bin B

Q. State the class of the sequence shown: `CGTGAGTC`
A. bin C

Q. State the class of the sequence shown: `ACAGTCAC`
A. bin B

----------
Parameter PBM E-score: see the listing below.
Molecular target: Vhr1 (UniProt P40522)
Sequence: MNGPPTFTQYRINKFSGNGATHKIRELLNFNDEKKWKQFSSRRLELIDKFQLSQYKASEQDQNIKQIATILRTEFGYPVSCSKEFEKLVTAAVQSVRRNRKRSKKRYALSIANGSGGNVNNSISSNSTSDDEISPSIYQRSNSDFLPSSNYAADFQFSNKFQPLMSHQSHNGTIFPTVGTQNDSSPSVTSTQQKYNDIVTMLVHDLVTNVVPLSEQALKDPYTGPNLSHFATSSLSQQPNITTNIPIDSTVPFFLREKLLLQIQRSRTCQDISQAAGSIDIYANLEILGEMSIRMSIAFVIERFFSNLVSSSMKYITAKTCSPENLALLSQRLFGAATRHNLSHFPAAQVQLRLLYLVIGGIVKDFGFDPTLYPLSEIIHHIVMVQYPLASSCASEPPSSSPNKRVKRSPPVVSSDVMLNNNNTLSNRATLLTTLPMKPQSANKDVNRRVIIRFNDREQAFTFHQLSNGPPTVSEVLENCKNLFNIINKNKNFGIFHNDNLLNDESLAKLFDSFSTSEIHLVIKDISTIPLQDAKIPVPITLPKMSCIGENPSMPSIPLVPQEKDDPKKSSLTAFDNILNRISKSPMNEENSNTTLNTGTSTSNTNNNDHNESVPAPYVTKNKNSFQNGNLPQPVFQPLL
Assay: PBM E-score (8-mer binding enrichment) (E-score (-0.5 to 0.5)); higher = stronger / more preferred TF binding
Conditions: protein concentration: 200 nM; construct: GST-full length
Over roughly 33,000 sequences, “E-score (-0.5 to 0.5)” has its median near -0.012; the highest 2% begin near 0.27. The sample as a whole holds a higher share of the highest values than the screen did.

Briefly, PBM E-score measured for `AGAGCACG` : 0.00968
